Measured values drawn from patent US20250059164A1 for this set.

Target: IRAK4 (Homo sapiens, UniProt Q9NWZ3)
Construct: endogenous in cells; host or cells: OCI-LY10
Sequence (Q9NWZ3 whole entry): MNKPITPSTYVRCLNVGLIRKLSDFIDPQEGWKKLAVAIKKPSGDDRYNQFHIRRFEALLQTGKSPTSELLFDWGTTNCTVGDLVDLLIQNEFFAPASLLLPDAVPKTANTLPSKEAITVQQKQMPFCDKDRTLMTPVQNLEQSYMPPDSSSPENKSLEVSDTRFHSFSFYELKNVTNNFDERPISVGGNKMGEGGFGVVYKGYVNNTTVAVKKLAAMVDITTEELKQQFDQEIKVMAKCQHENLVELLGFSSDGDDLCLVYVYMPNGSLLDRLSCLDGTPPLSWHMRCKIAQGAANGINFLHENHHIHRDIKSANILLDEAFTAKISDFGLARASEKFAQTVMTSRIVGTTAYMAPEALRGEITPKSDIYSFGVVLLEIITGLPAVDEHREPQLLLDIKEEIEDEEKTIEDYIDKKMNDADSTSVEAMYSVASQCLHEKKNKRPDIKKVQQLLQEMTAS
Assay: IRAK4 MSD degradation in OCI-LY10
Assay type: cell-based
Conditions: OCI-LY10 cells, 24 hrs, Meso Scale Discovery
Entries and their measured DC50 follow.

// known answers, use as guide
{"MOLECULE": "COc1ccc2c(c1[C@@H]1CCN(C[C@H]3CC[C@H](n4cc5cc(NC(=O)c6cncc(C(F)(F)F)n6)ccc5n4)CC3)CC1(F)F)n(C)c(=O)n2C1CCC(=O)NC1=O (single isomer, unassigned)", "DC50": "< 10 nM"}
{"MOLECULE": "Cn1nc(C2CCC(=O)NC2=O)c2cccc([C@@H]3CCN(C[C@H]4CC[C@H](n5cc6cc(NC(=O)c7cncc(C#N)c7)c(C(C)(C)O)cc6n5)CC4)CC3(F)F)c21 (single isomer, unassigned)", "DC50": "< 10 nM"}
{"MOLECULE": "COc1cc2nc([C@H]3CC[C@H](CN4CC[C@@H](c5cccc6c5n(C)c(=O)n6C5CCC(=O)NC5=O)[C@H](F)C4)CC3)cn2cc1NC(=O)c1cncc(C(F)(F)F)n1 (stereo partly drawn)", "DC50": "< 10 nM"}
{"MOLECULE": "CN(C[C@H]1CC[C@H](c2cc3cc(NC(=O)c4cncc(C(F)(F)F)n4)ccn3n2)CC1)[C@@H]1CCN(c2cccc3c2n(C)c(=O)n3C2CCC(=O)NC2=O)C[C@@H]1F (single isomer, unassigned)", "DC50": "> 200 nM"}
{"MOLECULE": "CN(C[C@H]1CC[C@H](n2cc(NC(=O)c3cnn4ccc(N5C[C@H]6C[C@@H]5CO6)nc34)c(C(F)F)n2)CC1)[C@H]1CCN(c2cccc3c2n(C)c(=O)n3[C@@H]2CCC(=O)NC2=O)C[C@@H]1F (single isomer, unassigned)", "DC50": "< 10 nM"}
{"MOLECULE": "Cn1c(=O)n(C2CCC(=O)NC2=O)c2cccc([C@@H]3CCN(C[C@H]4CC[C@H](n5cc6cc(NC(=O)c7cncc(C#N)c7)c(C(C)(C)O)cc6n5)CC4)CC3(F)F)c21 (single isomer, unassigned) [I-389]", "DC50": "< 10 nM"}
{"MOLECULE": "Cn1c(=O)n(C2CCC(=O)NC2=O)c2cccc([C@@H]3CCN(C[C@H]4CC[C@H](n5cc6cc(NC(=O)c7cncc(C#N)c7)c(C(C)(C)O)cc6n5)CC4)CC3(F)F)c21 (stereo partly drawn) [I-416]", "DC50": "< 10 nM"}
{"MOLECULE": "COc1cc2nn([C@H]3CC[C@H](CN4CC[C@@H](c5cccc6c5n(C)c(=O)n6C5CCC(=O)NC5=O)[C@H](F)C4)CC3)cc2cc1NC(=O)c1cncc(C(F)(F)F)n1 (stereo partly drawn)", "DC50": "< 10 nM"}

Now look at this entry.
Task: Find the measured DC50 of Cn1c(=O)n([C@@H]2CCC(=O)NC2=O)c2cccc(N3CCC4(CCN(C[C@H]5CC[C@H](n6cc7cc(NC(=O)c8cncc(C#N)c8)c(C(C)(C)O)cc7n6)CC5)CC4(F)F)CC3)c21 (single isomer, unassigned) with IRAK4 (Homo sapiens, UniProt Q9NWZ3) as test system.
Result: < 10 nM
